These measurements were taken from patent US7108865B2.

- test summary: Serum azithromycin pharmacokinetics after 2 g oral capsule dose, single vs divided (Example 1)
- Assay type: in vivo
- particulars: male, human, 250 mg capsule per half-hr for 3.5 hr (2 g total), oral, fasted, mean
quantity name: Tmax (h)
Numbers only here, please. The scale is h.

Note to self: Tmax recorded for CC[C@H]1OC(=O)[C@H](C)[C@@H](O[C@H]2C[C@@](C)(OC)[C@@H](O)[C@H](C)O2)[C@H](C)[C@@H](O[C@@H]2O[C@H](C)C[C@H](N(C)C)[C@H]2O)[C@](C)(O)C[C@@H](C)CN(C)[C@H](C)[C@@H](O)[C@]1(C)O was 4.4

* * *

- test summary: Serum azithromycin pharmacokinetics after 2 hr intravenous infusion (Example 3)
- Type: in vivo
- particulars: male, human, 4.0 g total IV dose, 2 hr infusion, n = 5
quantity name: Tmax (h)
Numbers only here, please. The scale is h.

Note to self: Tmax recorded for CC[C@H]1OC(=O)[C@H](C)[C@@H](O[C@H]2C[C@@](C)(OC)[C@@H](O)[C@H](C)O2)[C@H](C)[C@@H](O[C@@H]2O[C@H](C)C[C@H](N(C)C)[C@H]2O)[C@](C)(O)C[C@@H](C)CN(C)[C@H](C)[C@@H](O)[C@]1(C)O [azithromycin] was 1.1

* * *

- test summary: Serum azithromycin pharmacokinetics after 2 g oral capsule dose, single vs divided (Example 1)
- Type: in vivo
- particulars: male, human, 250 mg capsule per half-hr for 3.5 hr (2 g total), oral, fasted, mean, read-out: AUC0–144
quantity name: AUC(0-t) (ng·h/mL)
Numbers only here, please. The scale is ng·h/mL.

Note to self: AUC(0-t) recorded for CC[C@H]1OC(=O)[C@H](C)[C@@H](O[C@H]2C[C@@](C)(OC)[C@@H](O)[C@H](C)O2)[C@H](C)[C@@H](O[C@@H]2O[C@H](C)C[C@H](N(C)C)[C@H]2O)[C@](C)(O)C[C@@H](C)CN(C)[C@H](C)[C@@H](O)[C@]1(C)O was 18900

* * *

- test summary: Serum azithromycin pharmacokinetics after 2 hr intravenous infusion (Example 3)
- Assay type: in vivo
- particulars: male, human, 2.0 g total IV dose, 2 hr infusion, n = 6
- Procedure: Healthy male subjects were divided into four groups. Group A received a 2 hr intravenous infusion of a placebo solution (0 g azithromycin). Group B received a 2 hr intravenous infusion of a 1 g dose of azithromycin. Group C received a 2 hr intravenous infusion of a 2 g dose of azithromycin. Group D received a 2 hr intravenous infusion of a 4 g dose of azithromycin. […] All subjects were dosed after an overnight fast. Tmax is the time at which Cmax is achieved.
quantity name: Cmax (µg/mL)
Numbers only here, please. The scale is µg/mL.

Note to self: Cmax recorded for CC[C@H]1OC(=O)[C@H](C)[C@@H](O[C@H]2C[C@@](C)(OC)[C@@H](O)[C@H](C)O2)[C@H](C)[C@@H](O[C@@H]2O[C@H](C)C[C@H](N(C)C)[C@H]2O)[C@](C)(O)C[C@@H](C)CN(C)[C@H](C)[C@@H](O)[C@]1(C)O was 6.84

* * *

- test summary: clinical
- particulars: male, human, in vivo
- Experimental: Healthy male subjects were divided into two groups. Group A received a 2 g azithromycin dose administered directly into the duodenum as a solution via a nasoenteric tube. […] Blood samples were withdrawn prior to dosing, and at 0.08, 0.17, 0.33, 0.66, 1, 2, 4, 8, 12, 24, 48, 72, and 96 hr post-dosing. Serum azithromycin concentrations were determined using the high performance liquid chromatography assay described in Shepard et al., J. Chromatography, 565: 321–337, (1991). […]
quantity name: bioavailability
Express your answer as a number followed by its unit.

Note to self: bioavailability recorded for CC[C@H]1OC(=O)[C@H](C)[C@@H](O[C@H]2C[C@@](C)(OC)[C@@H](O)[C@H](C)O2)[C@H](C)[C@@H](O[C@@H]2O[C@H](C)C[C@H](N(C)C)[C@H]2O)[C@](C)(O)C[C@@H](C)CN(C)[C@H](C)[C@@H](O)[C@]1(C)O was 39.1%
